- conditions used: in chloroform, 313.15 K
readout label: solubility (mole fraction)
Note: the reply should be a number with no unit written.

[ask] Record request: solubility (mole fraction) value, item `C[C@@H]1CC[C@H]2[C@@H](C)C(=O)O[C@@H]3O[C@@]4(C)CC[C@@H]1[C@]32OO4`
[reply] 0.193

----------
- conditions used: in ethyl acetate, 283.15 K
readout label: solubility (mole fraction)
Note: the reply should be a number with no unit written.

[ask] Record request: solubility (mole fraction) value, item `C[C@@H]1CC[C@H]2[C@@H](C)C(=O)O[C@@H]3O[C@@]4(C)CC[C@@H]1[C@]32OO4`
[reply] 0.00525
